Data provenance: patent US20210403579A1

# assay_system: T1, Mouse ST2 (mouse, UniProt P14719 27-332, limits assumed)
# T1 construct: also called mouse ST2 protein
# T1 sequence (looked up): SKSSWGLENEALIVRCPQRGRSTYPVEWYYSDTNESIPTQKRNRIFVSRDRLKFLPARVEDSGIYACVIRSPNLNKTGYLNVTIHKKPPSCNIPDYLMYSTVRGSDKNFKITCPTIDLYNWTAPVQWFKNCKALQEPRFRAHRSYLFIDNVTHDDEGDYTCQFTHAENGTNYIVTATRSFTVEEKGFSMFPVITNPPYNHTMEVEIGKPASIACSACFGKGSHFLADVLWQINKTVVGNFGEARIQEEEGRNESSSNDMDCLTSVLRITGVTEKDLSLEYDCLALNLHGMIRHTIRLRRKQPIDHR
# method_notes: SPR (Carterra), antibody immobilized, ST2 analyte, 1:1
# Protocol: Binding of the reformatted human ST2 antibodies to the human and mouse ST2 proteins was evaluated by surface plasmon resonance (SPR), using a high throughput antibody screening and characterization platform from Carterra (Salt Lake City, Utah).
endpoint: kon (M⁻¹ s⁻¹)
The reply should be a number in M⁻¹ s⁻¹, with the unit left off.

Which kon reading was recorded for the binder Human ST2 IgG1 Antibody 30 (antibody, V domains shown, IgG1, kappa; also called ST2 Antibody 30) VH: QVQLVQSGAEVKKPGSSVKVSCKASGYTFTTYGITWVRQAPGQGLEWMGGIIPIFGTANYAQKFQGRVTITADESTSTAYMELSSLRSEDTAVYYCAKLSGSSGSWDYYYYYGMDVWGQGTLVTVSS VL: DIVMTQSPLSLPVTPGEPASISCRSSQSLLHSNGYNYLDWYLQKPGQSPQLLIYAASNLQSGVPDRFSGSGSGTDFTLKISRVEAEDVGVYYCMQALQTPITFGQSTRLEIKR ? 48000
